The reported measurements were obtained from ChEMBL document CHEMBL3638726.

biological target: 5-hydroxytryptamine 1D receptor (Bos taurus, UniProt Q8MI13)
Sequence (Q8MI13 whole entry): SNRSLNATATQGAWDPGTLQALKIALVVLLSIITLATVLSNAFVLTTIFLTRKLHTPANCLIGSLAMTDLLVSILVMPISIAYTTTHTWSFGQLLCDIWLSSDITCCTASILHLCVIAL
# Y = IC50 below 60 nM (exclusive); N = IC50 at/above 60 nM

>  <compoundStructure>
CN(C)CCc1c[nH]c2ccc(CNC(=N)c3cccs3)cc12

>  <qualitativeLabel>
N

$$$$
>  <compoundStructure>
CN1CCC[C@H]1Cc1c[nH]c2ccc(NC(=N)c3cccs3)cc12

>  <qualitativeLabel>
N

$$$$
>  <compoundStructure>
CN1CC=C(c2c[nH]c3ccc(CNC(=N)c4cccs4)cc23)CC1

>  <qualitativeLabel>
N

$$$$
>  <compoundStructure>
CN1CC=C(c2c[nH]c3ccc(NC(=N)c4cccs4)cc23)CC1

>  <qualitativeLabel>
Y

$$$$
>  <compoundStructure>
CN1CC=C(c2c[nH]c3ccc(NC(=N)c4ccco4)cc23)CC1

>  <qualitativeLabel>
Y

$$$$
>  <compoundStructure>
CN1CC=C(c2c[nH]c3ccc(NC(=S)NC(=O)c4ccccc4)cc23)CC1

>  <qualitativeLabel>
Y

$$$$
>  <compoundStructure>
CN1CCC[C@@H]1Cc1c[nH]c2ccc(NC(=N)c3cccs3)cc12

>  <qualitativeLabel>
N

$$$$
>  <compoundStructure>
CCSC(=N)Nc1ccc2[nH]cc(C3=CCN(C)CC3)c2c1

>  <qualitativeLabel>
Y

$$$$

###

molecular target: Nitric oxide synthase 3 (Homo sapiens, UniProt P29474); test: Enzyme Assay: Enzyme assay using recombinant human inducible NOS (iNOS), human endothelial constitutive NOS (eNOS) or human neuronal constitutive NOS (nNOS).
Sequence (P29474 whole entry): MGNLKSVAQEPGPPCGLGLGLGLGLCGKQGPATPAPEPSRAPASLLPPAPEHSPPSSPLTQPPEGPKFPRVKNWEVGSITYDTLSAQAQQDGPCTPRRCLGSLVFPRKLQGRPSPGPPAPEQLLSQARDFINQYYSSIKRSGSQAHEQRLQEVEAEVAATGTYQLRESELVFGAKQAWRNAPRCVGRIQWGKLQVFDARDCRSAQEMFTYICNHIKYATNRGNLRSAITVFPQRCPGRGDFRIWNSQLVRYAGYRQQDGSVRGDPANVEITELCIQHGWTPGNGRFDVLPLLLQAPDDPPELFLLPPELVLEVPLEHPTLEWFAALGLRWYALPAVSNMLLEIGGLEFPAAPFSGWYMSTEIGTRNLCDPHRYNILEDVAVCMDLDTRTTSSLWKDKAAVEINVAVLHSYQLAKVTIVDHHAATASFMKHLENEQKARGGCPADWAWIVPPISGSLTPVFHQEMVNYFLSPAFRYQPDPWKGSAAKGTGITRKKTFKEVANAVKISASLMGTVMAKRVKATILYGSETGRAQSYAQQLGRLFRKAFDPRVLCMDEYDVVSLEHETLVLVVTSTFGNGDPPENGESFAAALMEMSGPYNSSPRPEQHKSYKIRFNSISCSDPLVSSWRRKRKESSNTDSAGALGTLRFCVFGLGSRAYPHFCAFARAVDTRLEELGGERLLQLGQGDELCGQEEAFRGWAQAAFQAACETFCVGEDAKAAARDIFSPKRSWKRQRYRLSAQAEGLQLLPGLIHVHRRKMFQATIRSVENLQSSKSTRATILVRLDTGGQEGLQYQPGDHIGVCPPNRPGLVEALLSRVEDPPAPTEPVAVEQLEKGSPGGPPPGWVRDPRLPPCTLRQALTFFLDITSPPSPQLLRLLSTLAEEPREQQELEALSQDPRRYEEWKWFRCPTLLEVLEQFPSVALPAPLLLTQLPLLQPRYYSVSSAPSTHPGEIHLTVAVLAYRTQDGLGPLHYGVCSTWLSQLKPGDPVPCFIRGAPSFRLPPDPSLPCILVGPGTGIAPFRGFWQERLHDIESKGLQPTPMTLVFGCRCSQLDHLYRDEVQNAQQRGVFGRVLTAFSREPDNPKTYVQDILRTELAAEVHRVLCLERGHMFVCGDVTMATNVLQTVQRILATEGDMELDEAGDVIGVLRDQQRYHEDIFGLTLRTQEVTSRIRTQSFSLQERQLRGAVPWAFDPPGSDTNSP
readoutLabel: IC50 (µM)

>  <compoundStructure>
CN1CC[C@@H](c2c[nH]c3ccc(/N=C(\N)c4cccs4)cc23)[C@H](F)C1

>  <readoutLabel>
IC50

>  <assayValue>
40.1

$$$$
